Read-out: MicroRNA 122 (MIR122), gene 406906
methodDescription: LTEA_HepaRG_MIR122: Life Technologies and Expression Analysis (LTEA) Assay for MicroRNA 122 (MIR122) using HepaRG (AID 2283516); further: the transcript read is the microRNA miR-122
appliedConditions: mRNA level, 48 h; actives raise or lower the signal
Calls of active or inactive are those of the source. How the source made its calls: active means hit-call score of the fitted dose curve at least 0.9, where 1 is the maximum; inactive means score below 0.9.
Outcome codes: active, inactive

>>> group("O=C(O)Cc1cc(I)c(Oc2cc(I)c(O)c(I)c2)c(I)c1")
"active"
>>> group("COC(=O)CCCCC(=O)OC")
"inactive"
>>> group("O=c1c(-c2ccc(O)cc2)coc2cc(O)ccc12")
"inactive"

###

systemUnderTest: Paired box protein Pax-6 (Homo sapiens)
methodDescription: ATG_Pax6_CIS: Attagene CIS-FACTORIAL HepG2 Assay for human Paired Box 6 (PAX6) (AID 2282956)
appliedConditions: HepG2 CIS-FACTORIAL PAX6 reporter transcription, RNA readout; actives raise or lower the signal
The source made the active and inactive calls. How the source made its calls: active means hit-call score of the fitted dose curve at least 0.9, where 1 is the maximum; inactive means score below 0.9.
Outcome codes: t (active), f (inactive)

>>> group("COCC(C)O (stereo not given)")
"f"
>>> group("Cc1ccc(S(=O)(=O)O)c(C)c1")
"f"
>>> group("NC(=O)N(O)[C@@H]1C=C[C@H](Oc2cccc(Oc3ccc(F)cc3)c2)C1")
"t"
>>> group("CCOC(=O)CC(O)(CC(=O)OCC)C(=O)OCC")
"f"
>>> group("O=C(O)c1ccccc1C(c1ccc(O)cc1)c1ccc(O)cc1")
"f"
>>> group("CC(C)(C)c1cccc(C(C)(C)C)c1O")
"t"
>>> group("CCC(C)(C)C1CCC(O)CC1 (stereo not given)")
"f"
>>> group("CC(O)CO (stereo not given)")
"f"
>>> group("O=[N+]([O-])c1ccc(O)cc1")
"f"
>>> group("CCCCCCCCCCCCCC[N+](C)(C)C")
"f"
>>> group("Nc1cccc2c(N)cccc12")
"f"
>>> group("CCCCCCCC(=O)O")
"f"
>>> group("N#C[C@@H]1CC(F)(F)CN1C(=O)CNC1CC2CCC(C1)N2c1ncccn1 (stereo not given in full)")
"f"
>>> group("Cc1cc(CCN2CCN(c3nsc4ccccc34)CC2)cc2c1NC(=O)CC2(C)C")
"f"
>>> group("c1ccc2cc3c(ccc4ccccc43)cc2c1")
"f"
>>> group("CCCCC(CC)COC(=O)CCCCC(=O)OCc1ccccc1 (stereo not given)")
"f"
>>> group("COc1cc(CCC(=O)CC(=O)CCc2ccc(O)c(OC)c2)ccc1O")
"f"
>>> group("CN(C)C=O")
"f"
>>> group("CN1CCC[C@H]1c1cccnc1")
"f"
>>> group("NC(=O)N1C(=O)C(C(=O)c2cc(Cl)cs2)c2cc(F)c(Cl)cc21 (stereo not given)")
"f"
